target.desc: Protein-glutamine gamma-glutamyltransferase (Homo sapiens)
Sequence (P21980 whole entry): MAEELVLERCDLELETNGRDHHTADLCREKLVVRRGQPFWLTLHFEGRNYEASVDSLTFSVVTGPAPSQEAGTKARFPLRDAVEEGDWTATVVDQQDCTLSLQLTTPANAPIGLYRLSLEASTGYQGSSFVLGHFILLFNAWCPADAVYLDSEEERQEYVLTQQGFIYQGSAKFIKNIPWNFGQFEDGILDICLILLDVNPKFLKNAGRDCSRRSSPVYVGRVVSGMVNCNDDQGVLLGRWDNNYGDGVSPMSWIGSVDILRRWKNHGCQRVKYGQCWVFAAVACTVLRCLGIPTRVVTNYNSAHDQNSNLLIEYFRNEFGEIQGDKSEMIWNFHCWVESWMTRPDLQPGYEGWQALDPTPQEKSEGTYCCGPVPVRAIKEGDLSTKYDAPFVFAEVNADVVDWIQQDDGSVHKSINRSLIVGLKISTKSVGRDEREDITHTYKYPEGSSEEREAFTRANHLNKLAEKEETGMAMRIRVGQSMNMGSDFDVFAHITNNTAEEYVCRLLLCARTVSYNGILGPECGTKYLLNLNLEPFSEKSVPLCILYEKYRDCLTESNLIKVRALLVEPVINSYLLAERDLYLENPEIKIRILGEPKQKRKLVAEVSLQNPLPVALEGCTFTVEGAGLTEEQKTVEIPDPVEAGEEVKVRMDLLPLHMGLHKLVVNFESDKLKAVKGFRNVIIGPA
assay.explanation: Inhibition of recombinant human tissue transglutaminase-mediated biotin X-cadaverine incorporation into N,N'-dimethylcasein after 1 hr
quantity: IC50 (µM)

CC[S+](CC)CC(=O)CC[C@H](NC(=O)[C@H](Cc1ccccc1)NC(=O)OCc1ccccc1)C(=O)O = 20
CCCc1c(CCC)[n+](C)c(SCC(=O)CC[C@H](NC(=O)[C@H](Cc2ccccc2)NC(=O)OCc2ccccc2)C(=O)O)n1C = 5
C[S+](C)CC(=O)CC[C@H](NC(=O)[C@H](Cc1ccccc1)NC(=O)OCc1ccccc1)C(=O)O = 10
CCCc1c(CCC)[n+](C)c(SCC(=O)CC[C@H](NC(=O)CNC(=O)OCc2ccccc2)C(=O)O)n1C = 10

a = C[S+](C)CC(=O)CC[C@H](NC(=O)CNC(=O)OCc1ccccc1)C(=O)O
b = Cc1c(C)[n+](C)c(SCC(=O)CC[C@H](NC(=O)[C@H](Cc2ccccc2)NC(=O)OCc2ccccc2)C(=O)O)n1C.[Br-]
c = CC[S+](CC)CC(=O)CC[C@H](NC(=O)CNC(=O)OCc1ccccc1)C(=O)O
d = Cc1c(C)[n+](C)c(SCC(=O)CC[C@H](NC(=O)CNC(=O)OCc2ccccc2)C(=O)O)n1C
Request: // sort entries: IC50, high to low // list labels; follow requested order
Result: c, a, b, d
(c: 20 µM, a: 8 µM, b: 3 µM, d: 1 µM)
